TESTED TARGET: binding of biotinylated human growth hormone (b-hGH) to the extracellular domain of its receptor (Homo sapiens)
Sequence (P01241 27-217): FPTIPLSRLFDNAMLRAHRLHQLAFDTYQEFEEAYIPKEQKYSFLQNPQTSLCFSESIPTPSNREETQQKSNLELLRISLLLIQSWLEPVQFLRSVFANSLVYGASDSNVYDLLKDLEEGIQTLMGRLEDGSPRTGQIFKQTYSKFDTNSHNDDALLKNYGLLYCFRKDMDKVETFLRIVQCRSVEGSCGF
EXPERIMENTAL DETAILS: ELISA of binding of biotinylated human growth hormone (b-hGH) to the extracellular domain of its receptor
STATED CONDITIONS: inhibition of b-hGH (about 1.5 nM) binding to receptor-coated plates; compounds re-tested at multiple concentrations
Collected IC50 values appear next to each entry.

Known IC50 results, listed for orientation:
INPUT SMILES | IC50
Clc1ccc2nc(C(Cl)(Cl)Cl)[nH]c2c1 | 77 µM
Cc1nc2ccccc2[nH]1 | > 1000 µM
FC(F)(F)c1nc2cc(Cl)ccc2[nH]1 | > 1000 µM
Cn1c(C(Cl)(Cl)Cl)nc2ccccc21 | 150 µM
ClC(Cl)(Cl)c1nc2ccccc2s1 | > 1000 µM
Cc1ccc2[nH]c(C(Cl)(Cl)Cl)nc2c1 | 98 µM
Clc1ccc2[nH]cnc2c1 | > 1000 µM
Cc1ccc2[nH]cnc2c1 | > 1000 µM
Cc1nc2cc(Cl)ccc2[nH]1 | > 1000 µM
ClC(Cl)(Cl)c1nc2ccccc2[nH]1 | 170 µM

Q: Could you please provide reported IC50 for "Clc1cc2nc(C(Cl)(Cl)Cl)[nH]c2cc1Cl" ? Thanks!
Result: 51 µM

Q: Could you please provide reported IC50 for "ClC(Cl)(Cl)c1nc2ccccc2o1" ? Thanks!
Result: > 1000 µM

Q: Could you please provide reported IC50 for "c1ccc2[nH]c(-c3cscn3)nc2c1" ? Thanks!
Result: > 1000 µM
